TARGET: GST-Bc1-2 (Homo sapiens)
Sequence (P10415 whole entry): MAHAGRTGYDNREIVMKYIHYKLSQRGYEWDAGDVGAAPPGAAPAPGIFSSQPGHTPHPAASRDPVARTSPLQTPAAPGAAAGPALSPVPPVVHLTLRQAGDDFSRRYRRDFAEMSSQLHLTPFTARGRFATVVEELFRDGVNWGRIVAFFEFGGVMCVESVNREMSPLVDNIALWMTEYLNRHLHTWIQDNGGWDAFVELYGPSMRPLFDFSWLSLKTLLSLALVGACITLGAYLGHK
TEST_DETAILS: Time Resolved-Fluorescence Resonance Energy Transfer (TR-FRET) Bcl-2 binding assay with F-Bak peptide probe
CONDITION_LABEL: GST-Bcl-2 1 nM, F-Bak probe 100 nM, Tb-anti-GST 1 nM; '<' = below limit of detection; read-out: TR-FRET Bcl-2 Binding Ki
As shown below, each of these compounds has a reported Ki value.

{"COMPOUND": "CC1(C)CCC(CN2CCN(c3ccc(C(=O)NS(=O)(=O)c4ccc(N[C@@H]5CCN(C6CCOC(C)(C)C6)C5)c([N+](=O)[O-])c4)c(Oc4cnc5[nH]ccc5c4)c3)CC2)=C(c2ccc(Cl)cc2)C1 (stereo partly shown) [Example 131]", "QUALIFYING_SIGN": "<", "Ki (nM)": 0.01}
{"COMPOUND": "CO[C@H]1CC[C@H](COc2ncc(S(=O)(=O)NC(=O)c3ccc(N4CCN(CC5=C(c6ccc(Cl)cc6)CC(C)(C)CC5)CC4)cc3Oc3cnc4[nH]ccc4c3)cc2Cl)CC1 [Example 210]", "QUALIFYING_SIGN": "=", "Ki (nM)": 0.011}
{"COMPOUND": "CC1(C)CCC(CN2CCN(c3ccc(C(=O)NS(=O)(=O)c4ccc(N[C@@H]5CCN(S(C)(=O)=O)C5)c([N+](=O)[O-])c4)c(Oc4cnc5[nH]ccc5c4)c3)CC2)=C(c2ccc(Cl)cc2)C1 [Example 149]", "QUALIFYING_SIGN": "<", "Ki (nM)": 0.01}
{"COMPOUND": "CC1(C)CCC(CN2CCN(c3ccc(C(=O)NS(=O)(=O)c4ccc(NCc5cccc(OC(F)(F)F)c5)c([N+](=O)[O-])c4)c(Oc4cnc5[nH]ccc5c4)c3)CC2)=C(c2ccc(Cl)cc2)C1 [Example 175]", "QUALIFYING_SIGN": "=", "Ki (nM)": 0.119}
{"COMPOUND": "CC1(C)CC(c2ccc(Cl)cc2)=C(CN2CCN(c3ccc(C(=O)NS(=O)(=O)c4ccc(NCC5CCOCC5)c(C(F)(F)F)c4)c(Oc4cnc5[nH]ccc5c4)c3)CC2)CO1 [Example 42]", "QUALIFYING_SIGN": "=", "Ki (nM)": 0.439}
{"COMPOUND": "CC1(C)CCC(CN2CCN(c3ccc(C(=O)NS(=O)(=O)c4ccc(OCC5C[C@H]6C=C[C@@H]5C6)c([N+](=O)[O-])c4)c(Oc4cnc5[nH]ccc5c4)c3)CC2)=C(c2ccc(Cl)cc2)C1 (stereo partly shown) [Example 201]", "QUALIFYING_SIGN": "=", "Ki (nM)": 0.014}
{"COMPOUND": "CC1(C)CCC(CC2CCN(c3ccc(C(=O)NS(=O)(=O)c4ccc(NCC5CCOCC5)c([N+](=O)[O-])c4)c(Oc4cnc5[nH]ccc5c4)c3)CC2)C(c2ccc(Cl)cc2)C1 (stereo not shown) [Example 296]", "QUALIFYING_SIGN": "=", "Ki (nM)": 0.512}
{"COMPOUND": "CN1CC(Nc2ccc(S(=O)(=O)NC(=O)c3ccc(N4CCN(CC5=C(c6ccc(Cl)cc6)CC(C)(C)CC5)CC4)cc3Oc3cnc4[nH]ccc4c3)cc2[N+](=O)[O-])CC1=O (stereo not shown) [Example 202]", "QUALIFYING_SIGN": "<", "Ki (nM)": 0.01}
{"COMPOUND": "CC(=O)N[C@H]1CC[C@H](Nc2ccc(S(=O)(=O)NC(=O)c3ccc(N4CCN(CC5=C(c6ccc(Cl)cc6)CC(C)(C)CC5)CC4)cc3Oc3cnc4[nH]ccc4c3)cc2[N+](=O)[O-])CC1 [Example 179]", "QUALIFYING_SIGN": "<", "Ki (nM)": 0.01}
{"COMPOUND": "CN1CCC[C@H]1C(=O)N1CCC(COc2ccc(S(=O)(=O)NC(=O)c3ccc(N4CCN(CC5=C(c6ccc(Cl)cc6)CC(C)(C)CC5)CC4)cc3Oc3cnc4[nH]ccc4c3)cc2Cl)CC1 [Example 312]", "QUALIFYING_SIGN": "<", "Ki (nM)": 0.01}
